# protocol notes: viability loss in pontine glioma line – cell-based, SU-DIPG-XIII, MIPE5.0, CellTiter-Glo, qHTS, dose response (AID 1347064);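 for AC50: cells exposed to compound for 48 hours before the viability read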
# study conditions: CellTiter-Glo ATP luminescence
Records with an inconclusive call do not appear. Active and inactive are the calls of the source. No cut-off is given here; in the data, nearly all actives have AC50 up to about 23 µM.
Return exactly one item of active, inactive

Identify the outcome logged in this assay for the molecule shown: Cn1c(=O)c(F)c(Nc2ccc(I)cc2F)c2c(=O)n(C[C@@H](O)CO)cnc21
active

Identify the outcome logged in this assay for the molecule shown: Cc1cc(C(=O)NOCCO)c(Nc2ccc(I)cc2F)n(C)c1=O
active

Identify the outcome logged in this assay for the molecule shown: Cc1nc([C@](C)(O)CO)sc1-c1cnc(N)c(O[C@H](C)c2cc(F)ccc2-n2nccn2)c1
active

Next:
Identify the outcome logged in this assay for the molecule shown: CN1CCN(c2ccc(C(=O)Nc3n[nH]c4ccc(Cc5cc(F)cc(F)c5)cc34)c(NC3CCOCC3)c2)CC1
active

Identify the outcome logged in this assay for the molecule shown: Cn1cc(-c2ccc(S(=O)(=O)n3ccc(/C=C/C(=O)Nc4ccccc4N)c3)cc2)cn1
active

Identify the outcome logged in this assay for the molecule shown: COc1cccc2cc(-c3nc(C4CCC(C(=O)O)CC4)n4ncnc(N)c34)[nH]c12 (stereo not given)
active

Identify the outcome logged in this assay for the molecule shown: CCNC(=O)c1cc2c(-c3cc(OCCN4CCCC4)c(Cl)cc3Cl)nc(N)nc2s1
active

Identify the outcome logged in this assay for the molecule shown: COCCOc1ccc2c(c1)ncn2-c1ccc2cccc(N3CCC(N)CC3)c2n1
active

Identify the outcome logged in this assay for the molecule shown: CC[C@@H](C)Nc1cc(C(=O)NC2CC3CC[C@@H](C2)N3c2ccc(C(=O)C3CC3)cn2)c(C)cc1C(N)=O (stereo not given in full)
active

Identify the outcome logged in this assay for the molecule shown: Nc1nc2c(c(=O)[nH]1)N(C=O)[C@H](CNc1ccc(C(=O)N[C@@H](CCC(=O)O)C(=O)O)cc1)CN2
inactive

Identify the outcome logged in this assay for the molecule shown: CC(=O)Nc1cccc(-n2c(=O)n(C3CC3)c(=O)c3c(Nc4ccc(I)cc4F)n(C)c(=O)c(C)c32)c1
active

====

# protocol notes: viability loss in pontine glioma line – cell-based, SU-DIPG-XXV, MIPE5.0, CellTiter-Glo, qHTS, dose response (AID 1347065);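 note: cells exposed to compound for 48 hours before ATP readout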
# study conditions: CellTiter-Glo ATP luminescence
Inconclusive results are not listed. Calls of active or inactive are those of the source. The limit is not given here; nearly all actives have AC50 up to about 26 µM.
Return exactly one item of active, inactive

Example entries begin here.
Identify the outcome logged in this assay for the molecule shown: COc1cc(OC)cc(N2CCN(C(=O)Nc3nc4cc(F)ccc4nc3OC)CC2)c1
active

Identify the outcome logged in this assay for the molecule shown: CCOC(=O)/C=C/[C@H](C[C@@H]1CCNC1=O)NC(=O)[C@@H](CC(=O)[C@@H](NC(=O)c1cc(C)on1)C(C)C)Cc1ccc(F)cc1
inactive

Identify the outcome logged in this assay for the molecule shown: CC(C)c1cnn2c(NCc3ccccc3)cc(NCCCCCCN)nc12
active

Continue with the molecule presented below.
Identify the outcome logged in this assay for the molecule shown: CCCCCCCOc1ccc(CCC(N)(CO)CO)cc1C(F)(F)F
active

====

# reported inhibition; entries follow
# protocol notes: growth inhibition, single agents and combos, UWB1.289, cell-based, BGB or cisplatin combos, synergistic combos for chromothripsis tumors (AID 1671456);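 note: cells exposed to compound for four days; 0% = vehicle DMSO and 100% = killing by high DMSO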
# study conditions: UWB1.289 ovarian carcinoma cells, measured here: inhibition with cisplatin combination, at 0.05 µM, stronger effect = higher value
Give the number; % is assumed, so skip it.

Observe how each entry below is paired with its result.
Given COc1ccc(C(=O)CC2(O)C(=O)Nc3c(Cl)ccc(Cl)c32)cc1 (centres undefined) , respond with its inhibition.
-6.45

Given c1cc(Nc2cc(C3CC3)[nH]n2)nc(Nc2ccc3nc[nH]c3c2)n1 , respond with its inhibition.
-9.86

Next:
Given Nc1ccccc1NC(=O)c1ccc(CNc2nccc(-c3cccnc3)n2)cc1 , respond with its inhibition.
-16.7

Given CC(=O)Nc1nc(C)c(-c2ccc(Cl)c(S(=O)(=O)NCCO)c2)s1 , respond with its inhibition.
1.8

Data credit: PubChem BioAssay
